- assay_name: Chelating power (ChP) method
- measurement_context: individual compounds; maximum assay concentration 100 mM
Assign Y whenever ChP does not fall below 6 µmol EDTAE/mmol X; assign N whenever it does.

Worked set:
{"compound": "C=C1CC/C=C(\\C)CC[C@@H]2[C@@H]1CC2(C)C [β-Caryophyllene, (E)-β-Caryophyllene]", "label_class": "Y"}
{"compound": "C=C1CCC2CC1C2(C)C (centres unmarked)", "label_class": "N"}
{"compound": "CC1=CCC(O)(C(C)C)CC1 (centres unmarked)", "label_class": "N"}

Continue with the compound presented below.
Test whether the compound CC1=CCC2CC1C2(C)C (centres unmarked) records ChP of 6 µmol EDTAE/mmol X or higher.
Y
